B1: ESRRA (parent)
chain: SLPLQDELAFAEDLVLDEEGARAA

variants of: B1; assay: protein stability index of a GFP-peptide fusion (GPS, HEK-293T) (PSI 1-6); higher = more stable; conditions: c terminus: a fixed tail appended;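 note: lentivirally expressed fusions sorted by FACS into six bins by GFP to DsRed ratio, PSI derived from sequencing read proportions per bin multiplied by bin number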
Readout type: protein stability index

Recorded results for 5 variants are shown here.
Residue change: S1Q
protein stability index: 3.09
--
Residue change: G20D
protein stability index: 3.46
--
Residue change: L4G
protein stability index: 5.68
--
Residue change: V15T
protein stability index: 5.28
--
Residue change: L16C
protein stability index: 3.63

Query: May I ask what protein stability index has been recorded for L8E ?
Result: 5.55

Query: May I ask what protein stability index has been recorded for D6A ?
Result: 3.27

Query: May I ask what protein stability index has been recorded for L4Q ?
Result: 5.64

Query: May I ask what protein stability index has been recorded for E19G ?
Result: 1.75

Query: May I ask what protein stability index has been recorded for G20Q ?
Result: 3.93

Query: May I ask what protein stability index has been recorded for L4F ?
Result: 4.96

Query: May I ask what protein stability index has been recorded for L2R ?
Result: 2.55

Query: May I ask what protein stability index has been recorded for A21H ?
Result: 3.09

Query: May I ask what protein stability index has been recorded for D17A ?
Result: 2.89

Query: May I ask what protein stability index has been recorded for A21E ?
Result: 3.38

Query: May I ask what protein stability index has been recorded for A23N ?
Result: 3.21

Query: May I ask what protein stability index has been recorded for L4P ?
Result: 5.46

Query: May I ask what protein stability index has been recorded for A23I ?
Result: 2.87
